- procedure_details: FRG1 promoter luciferase signal modulators, primary screen, FRG1 inhibition for FSHD, cell-based, C2C12 myotubes, firefly/Renilla luciferase, luminescence (AID 1084)
- measurement_parameters: higher = more signal, called active from +8 up or from −8 down
List of z-score values.
// return just the number, without any unit appended

Study these solved cases before continuing.
NCCCCCNC(=O)[C@H]1C[C@H]2C(=O)NCC(=O)N2[C@H]1c1ccc(O)cc1: 1.51
O=C(NCc1ccccc1)[C@@H]1c2ccccc2C(=O)N(Cc2ccccc2Cl)[C@H]1c1ccc(CO)cc1: -2.93
CC(C)C(=C=CC[C@H](O)c1ccc(OCCO)cc1)C[C@H](O)COCc1ccccc1: -1.37
C[N+](C)(C)CCCC[C@@H]1NC(=O)[C@@H]2C[C@H](C(=O)NCCCCCNC(=O)CS)[C@H](c3ccc(O)cc3)N2C1=O: 1.26

Could you now consider this next compound?
Note down z-score recorded for COC(=O)C1=CC(CCCO)=CC(C2CC2)N(Cc2cc3c(cc2Br)OCO3)C=C1C(=O)OC (centres undefined)
-0.0234

---

- procedure_details: inhibitors of hydroxyurea-induced Chk1 phosphorylation, primary screen, imaging, HeLa, phospho-Chk1 antibody, percent positive cells (AID 1186)
- measurement_parameters: hydroxyurea-induced phospho-Chk1 immunofluorescence imaging, higher = more signal
List of z-score values.
// return just the number, without any unit appended

COCCOC(=O)N1C(=O)[C@@]2(c3cc(C#CCNC(N)=O)ccc31)[C@H](c1ccccc1OCCO)N1[C@H](c3ccccc3)[C@H](c3ccccc3)OC(=O)[C@H]1[C@@H]2C(=O)Nc1nc2ccccc2s1: -0.298
C=CCC(OC(C)=O)[C@@H]1[C@@H](N(Cc2cccc3ccccc23)C(=O)c2cccc3ccccc23)c2cc(OCCCO)ccc2N1C(=O)Cc1ccc(OC)cc1 (some centres undefined): -0.0578
CC(C)CNC(=O)[C@@H]1c2ccccc2C(=O)N(Cc2ccc(OC(F)(F)F)cc2)[C@H]1c1ccc(CO)cc1: -0.919

Could you now consider this next compound?
Note down z-score recorded for `NCCCCCCNC(=O)[C@@H]1C[C@@H]2C(=O)N[C@@H](Cc3ccccc3)C(=O)N2[C@@H]1c1ccc(O)cc1`
1

---

- procedure_details: NIH:OVCAR-3 ovarian cancer cell cytotoxicity, dose response, PAX8 inhibitor project, plate reader, dry powder samples (AID 743044)
- measurement_parameters: NIH:OVCAR-3 ovarian cancer cell viability; at 35 µM, stronger effect = lower value unless noted
Entries with a potency or affinity are not part of this list. Records with an inconclusive call do not appear. Active and inactive are the calls of the source. The rule behind the calls is not given here.
List of max activity values.

Study these solved cases before continuing.
C[C@@H]1CCCCO[C@H](CN(C)Cc2ccc(C(F)(F)F)cc2)[C@H](C)CN([C@H](C)CO)C(=O)c2cc(NS(=O)(=O)c3ccc(F)cc3)ccc2O1: -10.2% (inactive)
Cc1cccc(-c2ccc([C@H]3[C@H](CO)N4CCCCN(S(=O)(=O)c5ccccc5C)C[C@@H]34)cc2)c1: -11.5% (inactive)
C[C@@H]1CN([C@H](C)CO)C(=O)Cc2cc(NS(=O)(=O)c3ccccc3)ccc2O[C@@H]1CN(C)S(=O)(=O)c1ccc(Cl)cc1: 47.5% (inactive)

Could you now consider this next compound?
Note down max activity recorded for `C[C@H]1CN([C@@H](C)CO)C(=O)c2c(c3ccccc3n2C)-c2ccccc2CO[C@@H]1CN(C)S(=O)(=O)c1cccc(F)c1`
-21.9% (inactive)

---

- tgt: Homeobox protein Hox-A13 (Mus musculus) (UniProt Q62424)
- Sequence (Q62424 whole entry, looked up): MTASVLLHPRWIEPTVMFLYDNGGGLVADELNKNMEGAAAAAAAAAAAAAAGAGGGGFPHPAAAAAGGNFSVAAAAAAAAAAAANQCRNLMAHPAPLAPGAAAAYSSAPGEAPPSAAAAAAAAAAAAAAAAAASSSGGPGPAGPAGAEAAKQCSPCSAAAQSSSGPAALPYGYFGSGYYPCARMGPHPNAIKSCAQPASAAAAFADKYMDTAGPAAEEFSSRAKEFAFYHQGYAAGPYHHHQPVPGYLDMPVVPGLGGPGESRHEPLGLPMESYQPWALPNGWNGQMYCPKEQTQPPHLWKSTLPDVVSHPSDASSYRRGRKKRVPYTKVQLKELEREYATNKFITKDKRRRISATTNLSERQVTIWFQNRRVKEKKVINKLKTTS
- procedure_details: inhibitors of HoxA13-DNA binding, primary screen, biochemical, fluorescence polarization, labeled oligonucleotide (AID 1185)
- measurement_parameters: 15 min, higher = more signal, called active from +8 up or from −8 down
property_measured: z-score
// return just the number, without any unit appended

CC(=O)NCCCC[C@@H]1NC(=O)[C@@H]2C[C@H](C(=O)O)[C@H](c3cccc(OCCO)c3)N2C1=O: 0.294
CO[C@H]1O[C@H](CO)[C@@H](OC(=O)CCc2ccccc2)[C@@H]2OC(=O)[C@H](Cc3ccccc3)C/C=C/C[C@@H](Cc3ccccc3)C(=O)O[C@@H]12: -2.71
C=C(CCCC)/C(=C/C[C@H](OC(=O)c1ccncc1)c1ccc(CO)o1)c1cnc2ccccc2c1: -4.76
COC(=O)C(CC#Cc1ccc2c(c1)[C@]1(C(=O)N2)[C@H](C(N)=O)[C@H]2C(=O)O[C@H](c3ccccc3)[C@H](c3ccccc3)N2[C@@H]1c1ccc(O)cc1)C(=O)OC: -3.34

Enter z-score (test system Homeobox protein Hox-A13 (Mus musculus) (UniProt Q62424)) for `COc1ccc([Si](C)(C)[C@H]2[C@H](CC(=O)N(CCO)Cc3ccccc3)O[C@@]3(C(=O)N(Cc4ccc(N5CCOC5=O)cc4)c4ccccc43)[C@@H]2C)cc1`
-1.48

---

- tgt: Calmodulin-1 (Homo sapiens) (UniProt P0DP23)
- procedure_details: calcium-bound CALM1 binders on microarrays, profiling panel, artefact control for SMM control-protein annotation, biochemical, small-molecule microarray, Cy5-labelled CALM1, plus calcium (AID 1112);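 note: score merges spot fluorescence with signal to noise from triplicate slides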
- measurement_parameters: Cy5-CALM1 binding fluorescence, higher = more signal
Param threshold (0.04) applies to composite z-score; output class 1 when value >= threshold, class 0 when value < threshold.

For orientation, consider the following solved cases.
O=C(NCc1ccccc1)[C@@H]1c2ccccc2C(=O)N(Cc2ccccc2Cl)[C@H]1c1ccc(CO)cc1: class 0
[N-]=[N+]=NCc1ccccc1C[C@]1(C(=O)NCc2ccccc2)N=C(c2ccc(OCCCO)cc2)O[C@H]1c1ccccc1: class 1
COc1ccc([Si](C)(C)[C@H]2[C@H](CCO)O[C@@]3(C(=O)N(Cc4ccc(N5C(=O)c6cccc7cccc5c67)cc4)c4ccccc43)[C@@H]2C)cc1: class 1
CC(=O)NCCCC[C@@H]1NC(=O)[C@@H]2C[C@H](C(=O)O)[C@H](c3cccc(OCCO)c3)N2C1=O: class 0
NC(=O)NCC#Cc1ccc2c(c1)[C@]1(C(=O)N2)[C@H](c2ccc(OCCO)cc2)N2[C@H](c3ccccc3)[C@H](c3ccccc3)OC(=O)[C@H]2[C@@H]1C(=O)Nc1nc2ccccc2s1: class 1

Is composite z-score for `COCCCNC(=O)[C@@]1(C)c2ccccc2C(=O)N(Cc2cc(F)cc(C(F)(F)F)c2)[C@H]1c1ccc(CO)cc1` at or above 0.04?
class 1

Is composite z-score for CCN(CC)c1ccc(N2CC=CC34O[C@@H]5C=CCOC(=O)[C@@H]5[C@H]3C(=O)N(C(C)CO)[C@@H]4C2=O)cc1 (some centres not stated) at or above 0.04?
class 0

---

List of composite z-score values.
- Tested on: glycogen synthase kinase-3 (GSK3A per assay name; protocol says GSK3B)
- procedure_details: GSK3 binders on small-molecule microarrays, primary screen, biochemical, small-molecule microarray, 635 nm fluorescence, GSK3A (AID 1103); note: the record names both GSK3A and GSK3B
- measurement_parameters: small-molecule microarray binding, fluorescence 635 nm; higher = more signal
// return just the number, without any unit appended

Study these solved cases before continuing.
C[N+](C)(C)CCCC[C@@H]1NC(=O)[C@H]2C[C@@H](C(=O)NCCCCCN)[C@@H](c3cccc(OCCO)c3)N2C1=O: 0.985
O=C1c2ccccc2[C@](Cc2ccccc2I)(C(=O)O)[C@H](c2ccc(CO)cc2)N1Cc1ccccc1Cl: -0.0679

Could you now consider this next compound?
Note down composite z-score recorded for `[N-]=[N+]=NCc1ccccc1C[C@@]1(C(=O)O)N=C(c2ccc(OCCCO)cc2)O[C@@H]1c1ccccc1`
-0.374

---

- Tested on: Plasmodium falciparum Sir2 (PF13_0152, Sir2A)
- procedure_details: pfSir2 binders on small-molecule microarrays, primary screen, biochemical, small-molecule microarray, 635 nm fluorescence (AID 1098);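 note: score merges spot fluorescence intensity with its signal-to-noise ratio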
- measurement_parameters: small-molecule microarray binding, fluorescence 635 nm; higher = more signal
Param threshold (1) applies to composite z-score; output rule met when value >= threshold, rule not met when value < threshold.

For orientation, consider the following solved cases.
COc1ccc([Si](C)(C)[C@H]2[C@H](CCO)O[C@@]3(C(=O)N(Cc4ccc(N5C(=O)c6cccc7cccc5c67)cc4)c4ccccc43)[C@@H]2C)cc1: rule not met
COCCCNC(=O)[C@@]1(CCS(=O)(=O)c2ccccc2)N=C(c2ccc(OCCCO)cc2)O[C@H]1c1ccccc1CN=[N+]=[N-]: rule met
C=CCNC(=O)[C@H]1[C@@H]2C(=O)O[C@@H](c3ccccc3)[C@@H](c3ccccc3)N2[C@@H](c2ccc(OCCO)cc2)[C@]12C(=O)Nc1ccc(C#CCCO)cc12: rule met
Cc1ccc(S[C@]2(C(=O)NCC(C)C)CC(=O)N(C(C)C)[C@@H]2c2ccc(CO)cc2)cc1: rule not met
CCCCC(=C=CC[C@H](O)c1cccc(OCCO)c1)CCO: rule not met
C=C(COC)/C(=C/C[C@H](OC(C)=O)c1ccc(CO)o1)c1cnc2ccccc2c1: rule met

Is composite z-score for `C=C(/C(=C/C[C@H](OC(=O)c1ccncc1)c1cccc(OCCO)c1)c1cc(C(=O)OC)ccc1OC)C(C)C` at or above 1?
rule not met

Is composite z-score for `COc1ccc([Si](C)(C)[C@H]2[C@H](CC(=O)N(CCO)Cc3ccccc3)O[C@@]3(C(=O)N(Cc4ccc(N5CCOC5=O)cc4)c4ccccc43)[C@@H]2C)cc1` at or above 1?
rule not met

Is composite z-score for C=CCC(OC(C)=O)[C@@H]1[C@@H](N(Cc2cccc3ccccc23)C(=O)c2cccc3ccccc23)c2cc(OCCCO)ccc2N1C(=O)Cc1ccc(OC)cc1 (stereo partly specified) at or above 1?
rule not met

Hey, just so you know, these numbers are from PubChem BioAssay.
